Each entry below lists one item and its recorded logP value.
- METHOD DESCRIPTION: physchem
Please reply with the number alone, leaving off any unit.

These solved cases illustrate the format of a correct answer.
# COMPOUND, logP
records = [
    ("CN1CC(=O)N(c2cccc(C(F)(F)F)c2)C1c1cc2cc(Cc3ccc4oc(C5N(C)CC(=O)N5c5cccc(C(F)(F)F)c5)cc4c3)ccc2o1 (stereo not shown)", 5.16),
    ("Cc1ccc(C)c(N2C(=O)CN(C)C2c2cc3cc(Cc4ccc5oc(C6N(C)CC(=O)N6c6cc(C)ccc6C)cc5c4)ccc3o2)c1 (stereo not shown)", 4.38),
    ("Fc1ccccc1Cn1c(-c2cc3cc(Cc4ccc5oc(-c6nc7ccccc7n6Cc6ccccc6F)cc5c4)ccc3o2)nc2ccccc21", 4.65),
    ("CN1CC(=O)N(c2ccccc2)C1c1cc2cc(Cc3ccc4oc(C5N(C)CC(=O)N5c5ccccc5)cc4c3)ccc2o1 (stereo not shown)", 4.75),
    ("COc1ccc(N2C(=O)CN(C)C2c2cc3cc(Cc4ccc5oc(C6N(C)CC(=O)N6c6ccc(OC)cc6)cc5c4)ccc3o2)cc1 (stereo not shown)", 4.25),
]

Annotate the compound Cc1cccc(N2C(=O)CN(C)C2c2cc3cc(Cc4ccc5oc(C6N(C)CC(=O)N6c6cccc(C)c6C)cc5c4)ccc3o2)c1C (stereo not shown) with its measured logP.
3.77

Annotate the compound CN1CC(=O)N(c2ccc(F)cc2)C1c1cc2cc(Cc3ccc4oc(C5N(C)CC(=O)N5c5ccc(F)cc5)cc4c3)ccc2o1 (stereo not shown) with its measured logP.
4.6

Annotate the compound "O=Cc1cc2cc(Cc3ccc4oc(C=O)cc4c3)ccc2o1" with its measured logP.
3.75

Annotate the compound "CC(C)n1c(-c2cc3cc(Cc4ccc5oc(-c6nc7ccccc7n6C(C)C)cc5c4)ccc3o2)nc2ccccc21" with its measured logP.
3.71

Annotate the compound Cc1cc(C)cc(N2C(=O)CN(C)C2c2cc3cc(Cc4ccc5oc(C6N(C)CC(=O)N6c6cc(C)cc(C)c6)cc5c4)ccc3o2)c1 (stereo not shown) with its measured logP.
4.15
